# experimental.details: chemical genetic growth profiling, strain panel (AID 1159580);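 note: tested at 20 µM; growth read once vehicle control cultures reached saturation at 30 °C; 1 = growth at the plate median or of vehicle wells; lower values mean less growth of the strain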
# condition.notes: S. cerevisiae deletion strains, growth OD, locus YHR142W, strain chs7, active compounds read low
Out of some 5,500 compounds screened, about 2,000 (36%) were called active. Roughly 18% stayed inconclusive and do not appear here. The list shows a part of the results.
Each item that follows carries a reported normalized growth.

{"compound": "N[C@H](Cc1cc(I)c(Oc2ccc(O)c(I)c2)c(I)c1)C(=O)O", "normalized growth": 0.964}
{"compound": "NNCCc1ccccc1", "normalized growth": 1.02}
{"compound": "CCCCCC1C(=O)CCC1CC(=O)OC (configuration not stated)", "normalized growth": 0.987}
{"compound": "O=c1cc(-c2ccccc2)oc2c(O)c(O)ccc12", "normalized growth": 0.973}
{"compound": "CC(C)CCCC(C)C1CCC2C3CC[C@H]4CCCC[C@]4(C)C3CC[C@]12C (some centres not stated)", "normalized growth": 0.982}
{"compound": "COc1ccc(C(=O)CC(=O)c2ccc(C(C)(C)C)cc2)cc1", "normalized growth": 0.956}
{"compound": "NC(Cc1ccc(F)cc1)C(=O)O (configuration not stated)", "normalized growth": 0.996}
{"compound": "COc1cc([C@@H]2c3cc4c(cc3[C@H](OC(C)=O)[C@H]3COC(=O)[C@@H]23)OCO4)cc(OC)c1OC", "normalized growth": 0.995}
{"compound": "CCCCC[C@H](CC(=O)NO)C(=O)N[C@H](C(=O)N1CCC[C@H]1CO)C(C)C", "normalized growth": 1.01}
{"compound": "N[C@@H]1[C@@H](O)[C@H](O)[C@@H](CO)O[C@H]1O", "normalized growth": 1.01}
{"compound": "CN(C)N=Nc1nc[nH]c1C(N)=O", "normalized growth": 0.926}
{"compound": "COC(=O)CCC(C)[C@H]1CCC2C3C(C[C@H](O)[C@@]21C)[C@@]1(C)CC[C@@H](O)C[C@H]1C[C@H]3O (some centres not stated)", "normalized growth": 0.976}
{"compound": "CCN(CC)C(C)CN1c2ccccc2Sc2ccccc21 (configuration not stated)", "normalized growth": 0.863}
{"compound": "CC(CCC(=O)O)[C@H]1CCC2C3C(C[C@H](O)[C@@]21C)[C@@]1(C)CC[C@@H](O)C[C@H]1C[C@H]3O (some centres not stated)", "normalized growth": 1.05}
{"compound": "CC(CN(C)C)CN1c2ccccc2CCc2ccccc21 (configuration not stated)", "normalized growth": 0.971}
{"compound": "COC(=O)CCC(C)C1CCC2C3CC[C@@H]4C[C@H](O)CC[C@]4(C)C3C[C@H](O)[C@]12C (some centres not stated)", "normalized growth": 0.819}
{"compound": "S=P(N1CC1)(N1CC1)N1CC1", "normalized growth": 1}
{"compound": "CC(CCC(=O)O)[C@H]1CCC2C3CC[C@@H]4C[C@H](O)CC[C@]4(C)C3CC[C@@]21C (some centres not stated)", "normalized growth": 0.873}
{"compound": "CNCCCN1c2ccccc2CCc2ccccc21", "normalized growth": 0.993}
{"compound": "CC(=O)O[C@H]1C[C@@H](OC(C)=O)C(C)(C)C2CC(=O)[C@]3(C)C(CC[C@@]4(C)[C@H](c5ccoc5)OC(=O)[C@H]5O[C@]543)[C@]21C (some centres not stated)", "normalized growth": 1.01}
{"compound": "O=c1cc(-c2ccc(O)cc2)oc2cc(O)cc(O)c12", "normalized growth": 0.98}
{"compound": "CC(CN1c2ccccc2Sc2ccccc21)N(C)C (configuration not stated)", "normalized growth": 0.879}

The origin of these recorded values is PubChem BioAssay AID1159580.
